# ASSAYED_SYSTEM: T1, FPR1 (Homo sapiens, UniProt P21462)
# T1 chain: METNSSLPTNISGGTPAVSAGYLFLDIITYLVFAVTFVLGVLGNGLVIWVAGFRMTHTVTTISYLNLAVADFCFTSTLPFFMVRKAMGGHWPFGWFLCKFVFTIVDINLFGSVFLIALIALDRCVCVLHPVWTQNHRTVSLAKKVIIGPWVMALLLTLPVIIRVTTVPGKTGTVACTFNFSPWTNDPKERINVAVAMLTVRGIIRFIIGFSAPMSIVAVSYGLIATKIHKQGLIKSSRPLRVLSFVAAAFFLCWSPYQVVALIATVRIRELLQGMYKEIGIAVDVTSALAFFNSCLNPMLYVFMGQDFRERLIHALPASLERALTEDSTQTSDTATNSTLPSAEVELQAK
# PROTOCOL_DESCRIPTION: Ca2+ flux in FPR-transfected HL60 cells, one-site binding model
Where no end group is shown, it is not given here. The star is where a group is joined. For = O=C*
OUTCOME_MEASURE: pKd
Please express pKd as -log10 of the molar concentration.

Value of measured pKd for the entry For-MEFVAKLFKFFKDLLGKFLGNN [PSMα3] : 6.21
